GI50 reference
Test system: SF-295
experiment summary: NCI tumour cell line growth inhibition, 48 h
Active and inactive are the calls of the source. No stated cut-off is given here; in the data, active = GI50 up to about 1.1 µM and inactive = higher.

Worked cases, GI50 given:
CN(C)CC1(Cc2ccccc2)CC/C(=C\c2ccccc2)C1=O (centres undefined) ... 62.2 µM (inactive)
N#CC(N)c1ccc(OCCCCCCCCCCOc2ccc(C(N)C#N)cc2)cc1 (centres undefined) ... > 100 µM (inactive)
Nc1ccn(C2C=C(CO)C(O)C2O)c(=O)c1 (centres undefined) ... > 625 µM (inactive)

With those in mind, consider the next compound.
**Q:** // lookup GI50 for "CC(C)C(=O)CP(=O)(O)O"
**A:** > 100 µM (inactive)

====

Test system: Hs-578T
experiment summary: NCI tumour cell line growth inhibition, 48 h
Active and inactive are the calls of the source. Rule as the data show it: active = GI50 up to about 1.1 µM and inactive = higher.
value type: GI50

C=C(C)COC1CCCCO1 (stereo not given) ... > 100 µM (inactive)
O=C(N/N=C\c1ccc2ccccc2c1)Nc1ccc([N+](=O)[O-])cc1 ... 32.9 µM (inactive)
N=C(/C=C/c1ccc(-c2cn3cc(/C=C/C(=N)N4CCCC4)ccc3n2)cc1)N1CCCC1 ... 56.5 µM (inactive)
O=C1/C(=C\c2ccc([N+](=O)[O-])cc2)Sc2scc(-c3ccc(O)c(O)c3)[n+]21 ... 14.7 µM (inactive)
CCOc1cc(/C=C2/C(C)=NN(c3cccc(Cl)c3)/C2=N/c2nc3ccccc3s2)ccc1O ... 29.7 µM (inactive)
O=C(/C=C/c1ccc2c(c1)OCO2)c1ccc(O)cc1 ... 17.6 µM (inactive)
CC1=C(C(=O)NCCc2ccccc2)CC(C(=O)NCCc2ccccc2)=C(C)N1 ... 29.9 µM (inactive)
CCC1=NC(C(F)(F)F)(C(F)(F)F)N=C(/N=C(/N)N(C)C(C(C)C)P(=O)(OC(C)C)OC(C)C)O1 (stereo not given) ... > 100 µM (inactive)

**Q:** // lookup GI50 for CC(=O)C(C(=N)C#N)C(=O)Nc1ccccc1 (stereo not given)
**A:** 44.9 µM (inactive)

====

Test system: UACC-257
experiment summary: NCI tumour cell line growth inhibition, 48 h
Calls of active or inactive are those of the source. Rule as the data show it: active = GI50 up to about 1.1 µM and inactive = higher.
GI50 reference

Worked cases, GI50 given:
C=CCc1cc(C(Cc2ccccc2)NC(C)C)cc(OCc2ccccc2)c1OCc1ccccc1 (stereo unspecified) ... 18.8 µM (inactive)
CC(C)(O)/C1=C/C=C/CCCCCCCCCC1 ... > 100 µM (inactive)
Cc1cn(CCCC2=NCCCN2)c(=O)[nH]c1=O ... > 100 µM (inactive)
Cc1c(-c2ccccc2)n[nH]c1NC1(C)C(=O)N(/N=C/c2ccccc2)N=C1c1ccccc1 (stereo unspecified) ... > 100 µM (inactive)
CC(C)[Si](OC1=C(C(=O)N(C)c2ccccc2Cl)CCCC1)(C(C)C)C(C)C ... 10.2 µM (inactive)

**Q:** For UACC-257, provide GI50 of "C/C(=N\NC(=S)Nc1ccc([N+](=O)[O-])cc1S(=O)(=O)O)c1ccccn1" please.
**A:** > 100 µM (inactive)

**Q:** Can you check NC(=S)/N=C(/c1nc2ccc(Cl)cc2nc1O)C(O)c1ccccc1Cl (stereo unspecified) next?
**A:** > 100 µM (inactive)

**Q:** Can you check "Nc1ccccc1.O=P(O)(O)c1ccccc1" next?
**A:** > 100 µM (inactive)

**Q:** Can you check "O=C(CC(Cl)=C(Cl)Cl)c1ccccc1" next?
**A:** 27.4 µM (inactive)

**Q:** Can you check C=C1CCC2CC1[C@@H](C(=O)c1c[nH]c3ccccc13)NC2(C)C (stereo partly specified) next?
**A:** > 37.5 µM (inactive)

**Q:** Can you check "CC1=NN(c2nc(N)nc(CS(C)(=O)=O)n2)C(C)(C)C1" next?
**A:** > 100 µM (inactive)
